tested target: Amine oxidase [flavin-containing] A (Rattus norvegicus, UniProt P21396)
Sequence (P21396 whole entry): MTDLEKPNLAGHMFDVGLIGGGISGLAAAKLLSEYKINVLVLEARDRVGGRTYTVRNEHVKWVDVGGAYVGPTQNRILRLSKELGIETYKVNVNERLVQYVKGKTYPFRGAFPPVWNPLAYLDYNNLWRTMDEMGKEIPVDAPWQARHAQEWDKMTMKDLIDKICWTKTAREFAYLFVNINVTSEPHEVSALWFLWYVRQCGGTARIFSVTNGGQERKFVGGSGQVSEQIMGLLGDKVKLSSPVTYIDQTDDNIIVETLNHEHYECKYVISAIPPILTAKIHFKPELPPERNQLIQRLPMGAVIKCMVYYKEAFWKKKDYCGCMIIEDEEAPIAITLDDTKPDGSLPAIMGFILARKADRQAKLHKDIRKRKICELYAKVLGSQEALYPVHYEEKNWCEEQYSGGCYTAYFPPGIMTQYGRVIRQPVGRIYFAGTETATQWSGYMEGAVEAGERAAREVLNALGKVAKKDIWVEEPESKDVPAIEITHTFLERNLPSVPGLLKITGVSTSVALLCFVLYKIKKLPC
protocol text: biochemical
Assay type: tissue-based, Brain
readout name: IC50 (µM)

> print(dat)
                                   molecule  readout.name  endpoint.unit  data.value
1  CCN(C)C(=O)Oc1ccc2c(c1)C(N)CC2 (stereo unspecified)          IC50             µM        12.9

* * *

tested target: Butyrylcholinesterase (Equus caballus)
protocol text: In vitro inhibitory concentration against Butyrylcholinesterase of horse serum; value ranges from 1.19-6.10
readout name: IC50 (µM)

> print(dat)
                                   compound  readout.name  data.value
1  C#CCNC1CCc2ccc(OC(=O)N(CC)CCCC)cc21 (stereo unspecified)          IC50        3.03

* * *

tested target: Amine oxidase [flavin-containing] B (Rattus norvegicus, UniProt P19643)
Sequence (P19643 whole entry): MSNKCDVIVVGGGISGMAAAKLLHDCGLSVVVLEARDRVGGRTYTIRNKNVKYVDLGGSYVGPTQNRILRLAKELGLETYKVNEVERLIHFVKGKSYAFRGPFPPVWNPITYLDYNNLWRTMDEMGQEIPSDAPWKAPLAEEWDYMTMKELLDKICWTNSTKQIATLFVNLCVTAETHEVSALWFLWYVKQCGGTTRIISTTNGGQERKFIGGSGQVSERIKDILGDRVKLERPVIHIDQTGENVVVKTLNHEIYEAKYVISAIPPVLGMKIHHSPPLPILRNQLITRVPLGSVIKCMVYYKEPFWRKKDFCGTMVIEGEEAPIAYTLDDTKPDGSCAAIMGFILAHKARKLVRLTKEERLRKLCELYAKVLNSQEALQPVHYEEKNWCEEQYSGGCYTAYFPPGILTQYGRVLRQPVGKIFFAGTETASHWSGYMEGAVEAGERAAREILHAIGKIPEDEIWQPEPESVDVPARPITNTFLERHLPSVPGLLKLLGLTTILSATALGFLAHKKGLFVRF
protocol text: In vitro inhibitory concentration against Monoamine oxidase B of rat brain homogenates
Type: tissue-based
readout name: IC50

> print(dat)
                                   molecule  data.value
1        CCN(C)C(=O)Oc1ccc2c(c1)[C@H](N)CC2   > 1000 µM
2  CCN(C)C(=O)Oc1cccc2c1CCC2N (stereo not given)   > 1000 µM
3  CN(C)C(=O)Oc1cccc2c1CCC2N (stereo not given)   > 1000 µM
4  CN(C)C(=O)Oc1cccc2c1CCC2N(C)C (stereo not given)   > 1000 µM
5  C#CCNC1CCc2ccc(OC(=O)N(C)CC)cc21 (stereo not given)   > 1000 µM

* * *

tested target: Amine oxidase [flavin-containing] A (Rattus norvegicus)
protocol text: In vitro inhibitory concentration against Monoamine oxidase A of rat brain homogenates; value ranges from 75-240
Assay type: tissue-based
pIC50: −log10 of the molar value.
readout name: pIC50

> print(dat)
                                   compound  data.value
1  C#CCNC1CCc2ccc(OC(=S)N(C)C)cc21 (stereo unspecified)        3.89

* * *

tested target: Amine oxidase [flavin-containing] B (Rattus norvegicus)
protocol text: In vitro inhibitory concentration against Monoamine oxidase B of rat brain homogenates; value ranges from 360-470
Assay type: tissue-based
readout name: IC50 (µM)

> print(dat)
                                   molecule  endpoint.unit  data.value
1  C#CCNC1CCc2ccc(OC(=O)N(C)CCC)cc21 (stereo unspecified)             µM         410

* * *

tested target: UniProt P22303
protocol text: In vitro inhibitory concentration against purified Acetylcholinesterase of human erythrocytes; value ranges from 1.7-6.4
pIC50: −log10 of the molar value.
readout name: pIC50

> print(dat)
                                   molecule   tested.target  data.value
1  C#CCNC1CCc2cccc(OC(=O)N(C)C)c21 (stereo unspecified)  UniProt P22303        5.60

* * *

tested target: Butyrylcholinesterase (Equus caballus, UniProt Q9N1N9)
Sequence (Q9N1N9 whole entry): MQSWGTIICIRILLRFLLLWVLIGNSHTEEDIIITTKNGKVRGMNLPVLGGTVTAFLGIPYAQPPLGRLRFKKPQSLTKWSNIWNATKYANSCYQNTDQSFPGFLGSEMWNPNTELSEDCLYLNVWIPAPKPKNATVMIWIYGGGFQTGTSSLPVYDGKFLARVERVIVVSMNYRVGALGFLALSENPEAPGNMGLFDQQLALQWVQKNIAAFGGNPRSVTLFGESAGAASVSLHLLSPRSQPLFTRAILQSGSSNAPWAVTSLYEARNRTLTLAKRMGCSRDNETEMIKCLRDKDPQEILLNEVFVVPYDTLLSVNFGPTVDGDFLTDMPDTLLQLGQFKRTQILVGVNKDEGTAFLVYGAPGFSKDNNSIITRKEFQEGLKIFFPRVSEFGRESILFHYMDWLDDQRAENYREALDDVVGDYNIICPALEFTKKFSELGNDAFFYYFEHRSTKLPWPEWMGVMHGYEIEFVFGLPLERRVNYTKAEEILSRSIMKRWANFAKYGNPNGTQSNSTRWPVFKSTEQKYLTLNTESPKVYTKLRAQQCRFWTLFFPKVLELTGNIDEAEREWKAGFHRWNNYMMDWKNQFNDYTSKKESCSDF
protocol text: In vitro inhibitory concentration against Butyrylcholinesterase of horse serum; value ranges from 1.63-2.45
pIC50: −log10 of the molar value.
readout name: pIC50

> print(dat)
                     structure.string  readout.name  data.value
1  CCN(C)C(=O)Oc1ccc2c(c1)[C@H](N)CC2         pIC50        5.71

* * *

tested target: Acetylcholinesterase (Homo sapiens)
protocol text: In vitro inhibitory concentration against purified Acetylcholinesterase of human erythrocytes; value ranges from 6.4-45.9
readout name: IC50 (µM)

> print(dat)
                                   molecule  readout.name  endpoint.unit  data.value
1  C#CCNC1CCc2ccc(OC(=O)N(C)CCC)cc21 (stereo unspecified)          IC50             µM        14.6

* * *

tested target: Butyrylcholinesterase (Equus caballus, UniProt Q9N1N9)
protocol text: In vitro inhibitory concentration against Butyrylcholinesterase of horse serum; value ranges from 0.76-4.2
pIC50: −log10 of the molar value.
readout name: pIC50

> print(dat)
                                   compound                             tested.target  data.value
1  CCN(C)C(=O)Oc1ccc2c(c1)C(N)CC2 (stereo unspecified)  Butyrylcholinesterase (Equus caballus, UniProt Q9N1N9)        5.72

* * *

tested target: Acetylcholinesterase (Homo sapiens, UniProt P22303)
Sequence (P22303 whole entry): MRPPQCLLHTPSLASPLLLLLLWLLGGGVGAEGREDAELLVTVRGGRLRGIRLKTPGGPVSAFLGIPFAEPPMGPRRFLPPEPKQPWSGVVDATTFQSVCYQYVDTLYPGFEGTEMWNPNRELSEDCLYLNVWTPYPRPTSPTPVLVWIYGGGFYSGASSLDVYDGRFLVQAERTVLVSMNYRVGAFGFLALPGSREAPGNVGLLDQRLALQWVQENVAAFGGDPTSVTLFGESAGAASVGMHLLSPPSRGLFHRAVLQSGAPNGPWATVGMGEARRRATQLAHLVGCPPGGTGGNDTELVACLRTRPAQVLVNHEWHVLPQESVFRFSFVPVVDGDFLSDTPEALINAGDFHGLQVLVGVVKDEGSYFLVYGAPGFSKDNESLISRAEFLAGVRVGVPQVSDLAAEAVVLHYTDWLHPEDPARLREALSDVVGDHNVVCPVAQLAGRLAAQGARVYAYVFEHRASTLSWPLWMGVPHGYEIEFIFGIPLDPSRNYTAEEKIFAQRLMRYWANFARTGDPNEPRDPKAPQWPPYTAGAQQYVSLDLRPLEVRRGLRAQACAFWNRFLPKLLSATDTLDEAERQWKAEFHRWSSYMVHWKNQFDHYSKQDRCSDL
pIC50: −log10 of the molar value.
readout name: pIC50

> print(dat)
                                   compound  readout.name  data.value
1  C#CCN(C)C1CCc2c(OC(=O)N(C)CC)cccc21 (stereo unspecified)         pIC50        4.83

* * *

tested target: Amine oxidase [flavin-containing] B (Rattus norvegicus, UniProt P19643)
Sequence (P19643 whole entry): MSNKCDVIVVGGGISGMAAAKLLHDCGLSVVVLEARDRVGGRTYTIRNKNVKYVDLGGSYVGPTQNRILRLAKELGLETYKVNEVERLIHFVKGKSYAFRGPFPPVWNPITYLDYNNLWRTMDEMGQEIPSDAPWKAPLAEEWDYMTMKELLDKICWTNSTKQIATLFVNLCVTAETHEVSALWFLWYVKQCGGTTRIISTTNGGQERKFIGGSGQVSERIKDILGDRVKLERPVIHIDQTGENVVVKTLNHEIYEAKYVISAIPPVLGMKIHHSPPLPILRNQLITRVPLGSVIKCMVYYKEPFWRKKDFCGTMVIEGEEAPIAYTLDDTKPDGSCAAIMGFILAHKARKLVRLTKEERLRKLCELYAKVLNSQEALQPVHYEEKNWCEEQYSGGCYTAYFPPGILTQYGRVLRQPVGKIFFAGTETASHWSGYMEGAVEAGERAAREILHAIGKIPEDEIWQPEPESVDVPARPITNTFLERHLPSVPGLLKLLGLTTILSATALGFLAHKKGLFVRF
protocol text: In vitro inhibitory concentration against Monoamine oxidase B of rat brain homogenates; value ranges from 0.18-0.30
Format: tissue-based
pIC50: −log10 of the molar value.
readout name: pIC50

> print(dat)
                                   compound  data.value
1  C#CCNC(C)Cc1cccc(OC(=O)N(C)C2CCCCC2)c1 (stereo unspecified)        6.64

* * *

tested target: Acetylcholinesterase (Homo sapiens, UniProt P22303)
protocol text: In vitro inhibitory concentration against purified Acetylcholinesterase of human erythrocytes; value ranges from 0.18-0.32
readout name: IC50

> print(dat)
               structure.string  data.value
1  C#CCNCCc1cccc(OC(=O)N(C)C)c1      220 nM
